Papp listing for selected compounds.
Experiment: in vitro
Design: MDCK permeability
Measurement conditions: dog, MDCK
Numbers only; they are read as ×10⁻⁶ cm/s.

Structure smiles: Nc1ncnn2c([C@@H]3O[C@H](CNS(=O)(=O)c4ccc5ccccc5c4)[C@@H](O)[C@H]3O)ccc12
Papp / ×10⁻⁶ cm/s: 1

Next compound, Papp to be filled in.
stdin: I'd like to know its Papp. The compound in question is Nc1ncnn2c([C@@H]3O[C@H](/C=C/c4nc5ccccc5s4)[C@@H](O)[C@H]3O)ccc12
stdout: 12.8

====

Form field: logD (one value per entry).
Experiment: physchem
Provide a numeric answer; units are not to be included.

Answered examples (4):
Molecule: Nc1ncnn2c([C@@H]3O[C@H](CSc4ccc5ccccc5c4)[C@@H](O)[C@H]3O)ccc12 [compound 37]
logD: 2.2
--
Molecule: Nc1ncnc2c1ncn2[C@@H]1C[C@H](CSc2nc3ccccc3s2)[C@@H](O)[C@H]1O [compound 26]
logD: 1.5
--
Molecule: N#Cc1cn([C@@H]2O[C@H](CSc3nc4ccccc4s3)[C@@H](O)[C@H]2O)c2ncnc(N)c12 [compound 29]
logD: 1.8
--
Molecule: Nc1ncnc2c1ncn2[C@@H]1O[C@H](CNS(=O)(=O)c2ccc3ccccc3c2)[C@@H](O)[C@H]1O [compound 32]
logD: 1.5

stdin: Recorded logD of Nc1ncnn2c([C@@H]3O[C@H](CSc4ccc5ccccc5n4)[C@@H](O)[C@H]3O)ccc12 [compound 38] , please.
stdout: 1.7
